# assay.system: human CB1 receptor (Homo sapiens, UniProt P21554)
# Sequence (P21554 whole entry): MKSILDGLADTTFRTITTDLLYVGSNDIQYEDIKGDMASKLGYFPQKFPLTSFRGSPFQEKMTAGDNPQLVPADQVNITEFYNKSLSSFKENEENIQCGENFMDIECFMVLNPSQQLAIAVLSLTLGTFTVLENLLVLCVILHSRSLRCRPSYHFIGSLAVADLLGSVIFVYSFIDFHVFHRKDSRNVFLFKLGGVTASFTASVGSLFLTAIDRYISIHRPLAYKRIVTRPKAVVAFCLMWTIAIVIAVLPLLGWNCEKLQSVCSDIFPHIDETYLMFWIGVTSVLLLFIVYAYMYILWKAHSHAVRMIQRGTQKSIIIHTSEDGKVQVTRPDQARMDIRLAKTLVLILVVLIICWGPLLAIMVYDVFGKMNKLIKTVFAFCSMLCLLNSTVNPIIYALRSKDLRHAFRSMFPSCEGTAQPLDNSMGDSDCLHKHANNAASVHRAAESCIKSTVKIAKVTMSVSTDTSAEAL
# Format: binding
recorded.metric: Ki (µM)
Give just the number in µM; leave the unit off.

[[record]]
molecule = "c1ccc(Nc2nc3ccccc3nc2Nc2ccccc2)cc1"
numeric_value = 1.8


Now let's try a different one.
Value wanted: Ki (human CB1 receptor (Homo sapiens, UniProt P21554)) of entry CCc1c(C)sc(NC(=O)C(Sc2ccccc2)c2ccccc2)c1C(=O)OC (stereo not shown) 1.6

----------
# assay.system: human CB2 receptor (Homo sapiens, UniProt P34972)
# Sequence (P34972 whole entry): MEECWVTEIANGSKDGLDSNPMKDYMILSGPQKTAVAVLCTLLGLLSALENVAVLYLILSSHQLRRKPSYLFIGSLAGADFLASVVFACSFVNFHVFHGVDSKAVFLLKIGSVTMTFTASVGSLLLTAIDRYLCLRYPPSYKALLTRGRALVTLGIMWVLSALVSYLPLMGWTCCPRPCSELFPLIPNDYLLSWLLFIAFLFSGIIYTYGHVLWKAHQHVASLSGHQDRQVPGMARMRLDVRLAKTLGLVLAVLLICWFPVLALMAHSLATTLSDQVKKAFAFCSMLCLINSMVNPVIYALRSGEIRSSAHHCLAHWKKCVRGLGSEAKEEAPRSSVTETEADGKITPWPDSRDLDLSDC
# test.method.notes: [35S]GTPγS binding assay, HEK293 membranes expressing CB2
# Format: biochemical
# test.parameters: log (EC50, Molar) GTPγS binding CB2, 0.1 nM [35S]GTPγS, 10 μM GDP
recorded.metric: pEC50
The quantity pEC50 is defined as the negative base-10 logarithm of the molar concentration.

[[record]]
compound = "c1ccc(Nc2nc3ccccc3nc2Nc2ccccc2)cc1"
numeric_value = 6.30


Now let's try a different one.
Using the record for CCc1c(C)sc(NC(=O)C(Sc2ccccc2)c2ccccc2)c1C(=O)OC (centres unmarked) , report its pEC50. 7.40

----------
# assay.system: human CB2 receptor (Homo sapiens, UniProt P34972)
# Type: binding
# test.parameters: log (Ki, Molar) CB2, [3H]CP 55,940 tracer at 1.5 nM
recorded.metric: pKi
The quantity pKi is defined as the negative base-10 logarithm of the molar concentration.

Using the record for CC1CCN(C(NC(=O)c2ccc(C(C)(C)C)cc2)C(Cl)(Cl)Cl)CC1 (stereo not shown) , report its pKi. 6.60

----------
# assay.system: human CB2 receptor (Homo sapiens)
# Type: binding
# test.parameters: Ki (μM) CB2, [3H]CP 55,940 tracer at 1.5 nM
recorded.metric: Ki

// worked examples, Ki included
[[record]]
molecule = "CCc1c(C)sc(NC(=O)C(Sc2ccccc2)c2ccccc2)c1C(=O)OC (stereo not shown) [Compound 3]"
result = "0.8 µM"

[[record]]
molecule = "CC1CCN(C(NC(=O)c2ccc(C(C)(C)C)cc2)C(Cl)(Cl)Cl)CC1 (stereo not shown) [Compound 4]"
result = "0.2 µM"

[[record]]
molecule = "c1ccc(Nc2nc3ccccc3nc2Nc2ccccc2)cc1 [Compound 2, N2,N3-diphenylquinoxaline-2,3-diamine]"
result = "1.1 µM"


Now let's try a different one.
Using the record for CC(C)c1cc(C2CCCN2C(=O)c2cc(-c3ccc4c(c3)OCO4)on2)no1 (stereo not shown) [Compound 1] , report its Ki. 2.3 µM

----------
# assay.system: human CB2 receptor (Homo sapiens)
# test.method.notes: [35S]GTPγS binding assay, HEK293 membranes expressing CB2
# Format: biochemical
# test.parameters: EC50 GTPγS binding, 0.1 nM [35S]GTPγS, 10 μM GDP
Each item that follows carries a reported pEC50.
The quantity pEC50 is defined as the negative base-10 logarithm of the molar concentration.

[[record]]
compound = "CC(C)c1cc(C2CCCN2C(=O)c2cc(-c3ccc4c(c3)OCO4)on2)no1 (centres unmarked)"
recorded_metric = "pEC50"
numeric_value = 6.30


Value wanted: pEC50 (human CB2 receptor (Homo sapiens)) of entry CC1CCN(C(NC(=O)c2ccc(C(C)(C)C)cc2)C(Cl)(Cl)Cl)CC1 (centres unmarked) 7.10

----------
# assay.system: human CB2 receptor (Homo sapiens)
# Type: binding
# test.parameters: from radioligand binding at CB2 and CB1
recorded.metric: selectivity for CB2 versus CB1 (in words)

[[record]]
molecule = "CCc1c(C)sc(NC(=O)C(Sc2ccccc2)c2ccccc2)c1C(=O)OC (stereo not shown)"
result = "only weakly selective"

[[record]]
molecule = "c1ccc(Nc2nc3ccccc3nc2Nc2ccccc2)cc1"
result = "only weakly selective"

